# System: VCaP cells
# PROTOCOL_TEXT: CellTiter-Glo cell viability assay, VCaP
# TEST_PARAMETERS: read-out: cytotoxicity IC50, 72 h
PROPERTY_LABEL: pIC50
In textbook form, pIC50 equals minus log to base ten of the concentration in mol/L.

Fill in: pIC50 of C=CCNC1=C2C[C@@H](C)C[C@H](OC)[C@H](O)[C@@H](C)/C=C(\C)[C@H](OC(N)=O)[C@@H](OC)/C=C\C=C(/C)C(=O)NC(=CC1=O)C2=O [Compound 17-AAG, 17-AAG, reference compound] is ___
5.58

====

# System: 22Rv1 cells
# PROTOCOL_TEXT: CellTiter-Glo cell viability assay, 22Rv1
# TEST_PARAMETERS: read-out: cytotoxicity IC50; 22Rv1, 72 h
PROPERTY_LABEL: IC50 (nM)
Field format: number, assumed nM, no unit text.

Fill in: IC50 of C=CCNC1=C2C[C@@H](C)C[C@H](OC)[C@H](O)[C@@H](C)/C=C(\C)[C@H](OC(N)=O)[C@@H](OC)/C=C\C=C(/C)C(=O)NC(=CC1=O)C2=O [Compound 17-AAG, 17-AAG, reference compound] is ___
1270

The reported numbers originate from patent US20140051665A1.
